Origin of the recorded values: patent US20260337193A1

# pIC50 per entry
Target: Human recombinant USP1/UAF1 (Homo sapiens)
Sequence (O94782 whole entry): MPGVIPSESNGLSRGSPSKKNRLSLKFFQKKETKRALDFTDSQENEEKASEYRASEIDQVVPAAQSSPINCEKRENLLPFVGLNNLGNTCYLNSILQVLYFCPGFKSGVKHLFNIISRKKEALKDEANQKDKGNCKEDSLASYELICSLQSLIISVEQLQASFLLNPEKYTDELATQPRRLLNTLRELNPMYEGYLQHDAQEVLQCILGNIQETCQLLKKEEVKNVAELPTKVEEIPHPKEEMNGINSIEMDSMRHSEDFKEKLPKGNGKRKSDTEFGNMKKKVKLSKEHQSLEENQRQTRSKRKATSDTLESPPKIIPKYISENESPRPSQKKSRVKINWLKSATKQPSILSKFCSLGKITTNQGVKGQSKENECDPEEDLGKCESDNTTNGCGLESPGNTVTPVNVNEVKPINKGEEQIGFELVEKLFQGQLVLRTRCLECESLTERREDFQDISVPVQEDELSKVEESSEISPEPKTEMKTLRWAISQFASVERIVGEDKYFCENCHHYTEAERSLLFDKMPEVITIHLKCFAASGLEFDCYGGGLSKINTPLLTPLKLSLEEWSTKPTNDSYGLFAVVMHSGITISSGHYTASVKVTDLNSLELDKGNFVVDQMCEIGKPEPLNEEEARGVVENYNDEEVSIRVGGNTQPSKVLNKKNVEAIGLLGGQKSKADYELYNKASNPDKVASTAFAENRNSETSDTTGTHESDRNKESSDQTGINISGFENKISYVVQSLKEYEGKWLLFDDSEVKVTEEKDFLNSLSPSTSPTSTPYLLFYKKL
Sequence (Q8TAF3 whole entry partner): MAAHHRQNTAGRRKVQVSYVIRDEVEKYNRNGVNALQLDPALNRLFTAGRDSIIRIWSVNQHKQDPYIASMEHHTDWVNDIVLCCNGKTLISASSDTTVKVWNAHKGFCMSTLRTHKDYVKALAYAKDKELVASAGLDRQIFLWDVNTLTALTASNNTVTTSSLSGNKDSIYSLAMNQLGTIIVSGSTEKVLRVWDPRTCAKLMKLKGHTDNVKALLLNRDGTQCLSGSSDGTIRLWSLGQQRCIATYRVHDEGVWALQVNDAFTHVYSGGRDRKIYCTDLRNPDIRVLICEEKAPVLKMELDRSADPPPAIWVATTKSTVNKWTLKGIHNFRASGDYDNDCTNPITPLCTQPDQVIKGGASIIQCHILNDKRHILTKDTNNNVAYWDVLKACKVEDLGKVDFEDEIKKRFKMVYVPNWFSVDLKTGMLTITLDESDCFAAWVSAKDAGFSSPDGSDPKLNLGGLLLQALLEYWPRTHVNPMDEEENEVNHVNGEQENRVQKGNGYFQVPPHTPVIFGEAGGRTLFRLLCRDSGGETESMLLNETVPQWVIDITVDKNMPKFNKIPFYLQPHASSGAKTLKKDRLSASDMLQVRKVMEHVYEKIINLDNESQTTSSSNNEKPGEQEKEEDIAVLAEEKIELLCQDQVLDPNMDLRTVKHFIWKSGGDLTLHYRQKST
Experiment: Enzymatic assay: USP1/UAF1 deubiquitination of Ubiquitin Rhodamine 110 (kinetic fluorescence)
Conditions: 2 nM USP1/UAF1, 15 min preincubation at RT, HEPES pH 8.0, 500 nM Ubiquitin Rhodamine 110
pIC50: −log10 of the molar value.

Solved entries:
compound | quantity-kind | result
Cc1nn(-c2ccccc2C(C)C)c2c1CN(c1ncc(-c3nc(C(F)(F)F)cn3C)s1)C2 | pIC50 | 6.00 to 7.30
CCn1cc(C(F)(F)F)nc1-c1cnc(N2CCc3c(C)nn(-c4c(C)cnn4C(C)C)c3C2)cn1 | pIC50 | > 7.30
COc1ncnc(C2CC2)c1-n1nc(C)c2c1CN(c1ccc(-c3nc(C(F)(F)F)cn3C)nc1)CC2 | pIC50 | 6.00 to 7.30
CC(C)c1ncccc1-c1nccc2c1CC(c1ccc(-c3nc(C(F)(F)F)cn3C)cc1)C2 (stereo not drawn) | pIC50 | > 7.30

Lookup: Which measured pIC50 value corresponds to `COc1ncnc(C2CC2)c1-n1nc(C)c2c1CN(c1cnc(-c3nc(C(F)(F)F)cn3C)cn1)CC2` ?
Found: > 7.30

Lookup: Which measured pIC50 value corresponds to `COc1ncnc(C2CC2)c1-n1nc(C)c2c1CN(c1ccc(-c3nc(C(F)(F)F)cn3C)cn1)CC2` ?
Found: 6.00 to 7.30

Lookup: Which measured pIC50 value corresponds to `COc1ncnc(C2CC2)c1-n1nc(C)c2c1CN(c1ccc(-c3nc(C(F)(F)F)cn3C)c(F)c1)CC2` ?
Found: > 7.30

Lookup: Which measured pIC50 value corresponds to `CCn1cc(C(F)(F)F)nc1-c1ccc(N2CCc3c(C)nn(-c4c(OC)ncnc4C4CC4)c3C2)nc1` ?
Found: 6.00 to 7.30

Lookup: Which measured pIC50 value corresponds to `COc1ncnc(C2CC2)c1-n1nc(C)c2c1CN(c1ccc(-n3nc(C(F)(F)F)cc3C)cn1)CC2` ?
Found: 6.00 to 7.30
